# Test system: Canis familiaris
# Assay Overview: Clearance in dog at 0.5 mg/kg, iv by LC-MS/MS analysis
# Assay type: ADME, organism-based, Canis lupus familiaris
# Condition Set: in vivo
Quantity Measured: clearance (mL/min/kg)
Could you give me the number in mL/min/kg? Just the number is fine.

## Input Please report the recorded clearance for Cc1nnc(C(C)C)n1[C@@H]1C[C@H]2CC[C@@H](C1)N2CC[C@H](NC(=O)C1CCC(F)(F)CC1)c1ccccc1 [MARAVIROC] .
## Output 21

====

# Assay Target: Cytochrome P450 1A2 (Homo sapiens, UniProt P05177)
# Sequence (P05177 whole entry): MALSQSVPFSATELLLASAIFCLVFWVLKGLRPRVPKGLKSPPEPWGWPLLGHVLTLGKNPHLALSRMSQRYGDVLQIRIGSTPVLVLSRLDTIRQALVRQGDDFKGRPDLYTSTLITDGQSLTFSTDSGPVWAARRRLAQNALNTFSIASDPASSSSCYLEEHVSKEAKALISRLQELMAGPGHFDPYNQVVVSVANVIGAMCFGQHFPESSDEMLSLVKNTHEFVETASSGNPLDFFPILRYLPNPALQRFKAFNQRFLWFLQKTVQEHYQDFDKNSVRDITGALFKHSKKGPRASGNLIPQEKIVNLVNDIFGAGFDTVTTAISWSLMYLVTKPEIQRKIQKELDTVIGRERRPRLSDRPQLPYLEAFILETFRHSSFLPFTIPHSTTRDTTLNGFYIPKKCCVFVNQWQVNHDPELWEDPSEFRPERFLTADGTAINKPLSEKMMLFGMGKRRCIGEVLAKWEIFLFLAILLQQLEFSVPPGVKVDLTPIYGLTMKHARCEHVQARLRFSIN
Recorded IC50 values for a group of compounds are listed next.

Please review the entries below; each comes with its answer.
## Input Item: Cc1nnc(C(C)C)n1[C@@H]1C[C@H]2CC[C@@H](C1)N2CC[C@H](NC(=O)C1CCC(F)(F)CC1)c1cccs1 Test system: Cytochrome P450 1A2 (Homo sapiens, UniProt P05177) Read-out: IC50 Value: ?
## Output > 25 µM

## Input Item: Cc1nnc(C(C)C)n1[C@@H]1C[C@H]2CC[C@@H](C1)N2CC[C@H](NC(=O)C1CCC(F)(F)CC1)c1ccsc1 Test system: Cytochrome P450 1A2 (Homo sapiens, UniProt P05177) Read-out: IC50 Value: ?
## Output > 25 µM

***
## Input Item: Cc1ccc([C@H](CCN2[C@@H]3CC[C@H]2C[C@H](n2c(C)nnc2C(C)C)C3)NC(=O)C2CCC(F)(F)CC2)s1 Test system: Cytochrome P450 1A2 (Homo sapiens, UniProt P05177) Read-out: IC50 Value: ?
## Output > 25 µM

## Input Item: Cc1nnc(C(C)C)n1[C@@H]1C[C@H]2CC[C@@H](C1)N2CC[C@H](NC(=O)C1CCCC1)c1cccs1 Test system: Cytochrome P450 1A2 (Homo sapiens, UniProt P05177) Read-out: IC50 Value: ?
## Output > 25 µM

## Input Item: Cc1nnc(C(C)C)n1[C@@H]1C[C@H]2CC[C@@H](C1)N2CC[C@H](NC(=O)C1CCCCC1)c1cccs1 Test system: Cytochrome P450 1A2 (Homo sapiens, UniProt P05177) Read-out: IC50 Value: ?
## Output > 25 µM
